system.name: KMO mouse enzyme (Mus musculus)
Construct: KMO enzyme prepared at Evotec from mouse liver (4-6 weeks old) via mitochondria isolation; from tissue; host or cells: mouse liver (4-6 weeks old), mitochondria isolation, prepared at Evotec
Sequence (Q91WN4 whole entry): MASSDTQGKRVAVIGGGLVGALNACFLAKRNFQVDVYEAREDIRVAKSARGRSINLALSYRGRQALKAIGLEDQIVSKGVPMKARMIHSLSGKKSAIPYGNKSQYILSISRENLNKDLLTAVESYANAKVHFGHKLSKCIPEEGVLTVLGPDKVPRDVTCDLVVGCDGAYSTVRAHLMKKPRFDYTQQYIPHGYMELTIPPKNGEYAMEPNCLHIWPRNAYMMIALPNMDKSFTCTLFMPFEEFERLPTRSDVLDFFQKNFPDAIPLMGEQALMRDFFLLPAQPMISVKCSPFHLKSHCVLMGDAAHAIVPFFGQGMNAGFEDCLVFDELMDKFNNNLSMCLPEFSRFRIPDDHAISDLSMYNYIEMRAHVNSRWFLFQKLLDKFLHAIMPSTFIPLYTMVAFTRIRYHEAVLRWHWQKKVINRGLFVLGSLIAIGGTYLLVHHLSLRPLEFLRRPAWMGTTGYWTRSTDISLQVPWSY
test.protocol: KMO mouse enzyme assay: L-Kynurenine hydroxylation to 3-Hydroxy-Kynurenine monitored by LC/MS (MRM)
Format: biochemical
measurement.context: compound at 10 μM; KMO enzyme from mouse liver mitochondria; read-out: INH.Mouse @ 10 μM
measure.name: inhibition at 10 µM (%)

* COC(=O)c1cc(-c2cccc(C(F)(F)F)c2)ncn1 | 94.5
* O=C(NCc1ccccc1)c1cc(-c2cccc(Cl)c2)ncn1 | 67
* COc1ccc(S(=O)(=O)Nc2cc(-c3ccc(Cl)c(Cl)c3)ncn2)cc1OC | 85
* COc1cncc(NC(=O)c2cc(-c3cccc(Cl)c3)ncn2)c1 | 100
* COc1ccncc1NC(=O)c1cc(-c2cccc(Cl)c2)ncn1 | 91
* COC(=O)c1cc(-c2cc(Cl)ccc2F)ncn1 | 100
* O=C(c1cc(-c2cccc(Cl)c2)ncn1)N1CCCC1 | 90.5
* O=C(Nc1ccc(F)cc1)c1cc(-c2cccc(Cl)c2)ncn1 | 98.9
* O=C1CN(C(=O)c2cc(-c3cccc(Cl)c3)ncn2)CCN1 | 100
* O=C(Nc1nccs1)c1cc(-c2ccc(Cl)c(Cl)c2)ncn1 | 83.7
* O=C(c1cc(-c2cccc(Cl)c2)ncn1)N1CCc2ccccc21 | 100
